target: UniProtKB P51449; assay: RORγ assay (GAL4-RORγ hybrid luciferase reporter, Indigo Biosciences); format: cell-based; settings: inverse-agonist activity, GAL4-RORγ reporter cells, 23 hours
Sequence (P51449 269-508 limits assumed): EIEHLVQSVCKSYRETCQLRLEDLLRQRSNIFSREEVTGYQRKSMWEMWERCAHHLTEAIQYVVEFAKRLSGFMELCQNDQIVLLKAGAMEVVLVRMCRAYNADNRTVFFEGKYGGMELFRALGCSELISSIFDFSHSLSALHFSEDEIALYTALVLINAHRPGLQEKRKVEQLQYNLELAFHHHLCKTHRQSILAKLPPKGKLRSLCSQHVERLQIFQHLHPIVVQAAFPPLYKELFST
Entries and their IC50 values follow.
Reply numerically in nM, unit not repeated.

Example results:
C[C@H]1C(=O)C(C#N)=C[C@@]2(C)c3nc(-c4ccnc5ccccc45)n(-c4cccc(F)c4)c3CC[C@H]12
141
C[C@H]1C(=O)C(C#N)=C[C@@]2(C)c3c(c(-c4ccccc4)nn3-c3ccc(-c4ccc(N(C)C)cc4)cc3)CC[C@H]12
68
C[C@H]1C(=O)C(C#N)=C[C@@]2(C)c3nc(-c4cnc5ccccc5c4)n(-c4cccc(F)c4)c3CC[C@H]12
93
C[C@H]1C(=O)C(C#N)=C[C@@]2(C)c3c(c(-c4ccc(F)cc4)nn3-c3ccc(-c4ccccc4)cc3)CC[C@H]12
77
C[C@H]1C(=O)C(C#N)=C[C@@]2(C)c3nc(-c4ccc(C5CC5)nc4)n(-c4cccc(F)c4)c3CC[C@H]12
76
Cc1cc(-c2ccc(-n3nc(-c4noc(C)n4)c4c3[C@]3(C)C=C(C#N)C(=O)[C@H](C)[C@H]3CC4)cc2)cnn1
193

API: the following record is the query input.
Please give the documented IC50 of `C[C@H]1C(=O)C(C#N)=C[C@@]2(C)c3nn(-c4ccc(Cl)cc4)c(-c4ccccc4)c3CC[C@H]12`
106
